// provenance: PubChem BioAssay AID1159536

- Tested on: Chlamydomonas reinhardtii, Nile Red lipid fluorescence, 72 h
- Assay overview: compounds raising TAG storage in Chlamydomonas – qHTS, Chlamydomonas reinhardtii, dose response (AID 1159536)
Results filed as inconclusive are left out. Calls of active or inactive are those of the source. How the calls were made is not given here.
Mark one answer only. Choices: true = active, false = inactive

Example entries begin here.
{"columns": ["Molecule", "Cat"],
 "data": [
  ["CC1CCCC(N2CCN(Cc3ccccc3)CC2)C1 (stereo not drawn)", "true"],
  ["O=C(Nc1cccnc1)c1ccc(S(=O)(=O)c2ccc(Cl)cc2)cc1", "false"],
  ["O=[N+]([O-])c1cccc(CNC2CCCCCC2)c1", "true"],
  ["C=CCc1cccc(C)c1OCCCN1CCN(C)CC1", "true"],
  ["Cc1cc(C)c(C)c(OCCCCN2CCOCC2)c1", "true"],
  ["CC(CCc1ccc(O)cc1)NC1C2CC3CC(C2)CC1C3 (stereo not drawn)", "true"],
  ["Cc1cc(C(C)(C)C)ccc1OCCN1CCN(C)CC1", "true"],
  ["CN1CCN(CC#CC=C(c2ccccc2)c2ccccc2)CC1", "false"]
]}

Hi, sorry to bother you, what did the test record for CCOc1ccccc1C(=O)NC1CC1 ?
false

Dear colleague, could you share the recorded outcome for COc1ccccc1N1CCN(Cc2ccc(Cl)cc2)CC1 when you have a moment?
true

----------
- Test system: Chlamydomonas reinhardtii, Nile Red lipid fluorescence, 72 h
- Assay overview: compounds raising TAG storage in Chlamydomonas – qHTS, Chlamydomonas reinhardtii, dose response (AID 1159536)
Inconclusive results are not listed. Activity calls are given as the source filed them. No rule for the calls is given here.
# valid calls are active, inactive; nothing else

What call does the record list for CCN1CCN(C2CCC(c3ccccc3)CC2)CC1 (stereo not drawn) ?
active

Outcome? O=C(NCCc1ccc(Cl)cc1)C(=O)Nc1nccs1
inactive

Check the results log: what was the call for c1ccc(CN2CCN(C3CC4CCC3C4)CC2)cc1 (stereo not drawn) ?
active

What was the test verdict on O=C(Nc1ccccc1)Nc1ccccc1C(=O)N1CCOCC1 ?
inactive

----------
- Tested on: Chlamydomonas reinhardtii, Nile Red lipid fluorescence, 72 h
- Assay overview: compounds raising TAG storage in Chlamydomonas – qHTS, Chlamydomonas reinhardtii, dose response (AID 1159536)
Records with an inconclusive call do not appear. The source made the active and inactive calls. The rule behind the calls is not given here.
Can you answer with just one of these options? class 1 (active), class 0 (inactive)

{"columns": ["Compound", "Cat"],
 "data": [
  ["Cc1ccc(CN(C)C2CCN(C)CC2)s1", "class 1"]
]}

GET /call?item= Cc1ccc(OCCCCN2CCCC2)c(Br)c1 returns the recorded outcome of this test.
class 1

Hello, I am checking results. What call was entered for Clc1ccccc1OCCCCN1CCOCC1 ?
class 1

What did the test return for Cc1ccc(C)c(N2CCN(Cc3ccc([N+](=O)[O-])cc3)CC2)c1 ?
class 1

I would be grateful if you could indicate the recorded call for Cc1cc(Cl)c(OCCOCCN2CCN(C)CC2)c(Br)c1 .
class 1

Entry CCOc1ccc(C(=O)NCCNC(=O)c2ccc(OCC)cc2)cc1 : call = ?
class 0

Please state the recorded outcome for this compound: COc1cccc(N2CCN(CC3CC4C=CC3C4)CC2)c1 (configuration not stated)
class 1

Per the assay record, what outcome was assigned to CSc1ccc(CN2CCSCC2)cc1 ?
class 0

----------
- Test system: Chlamydomonas reinhardtii, Nile Red lipid fluorescence, 72 h
- Assay overview: compounds raising TAG storage in Chlamydomonas – qHTS, Chlamydomonas reinhardtii, dose response (AID 1159536)
Results filed as inconclusive are left out. No rule for the calls is given here.
Can you answer with just one of these options? active, inactive

{"columns": ["Molecule", "Cat"],
 "data": [
  ["O=C(CN1CCCCC1)NCC12CC3CC(CC(C3)C1)C2", "active"],
  ["C(=C\\c1ccccc1)/CN1CCN(CC2CCCCC2)CC1", "active"],
  ["C/C=C(\\C)CN1CCN(c2ccc(C)cc2)CC1", "active"],
  ["Cc1ccc(C)c(N2CCN(C3CCc4ccccc4C3)CC2)c1 (configuration not stated)", "active"],
  ["Clc1cc(Br)ccc1OCCCCN1CCOCC1", "active"]
]}

What classification did CC(C)=CCC[C@H](C)CCN1CCN(C)CC1 end up with in this test?
active

Assay outcome for C=CCn1c(SCC(=O)NCCc2ccccc2)nnc1-c1ccc(Cl)cc1Cl : what was it?
active
